# measuredTarget: SSTR2 (Homo sapiens)
# Sequence (P30874 whole entry): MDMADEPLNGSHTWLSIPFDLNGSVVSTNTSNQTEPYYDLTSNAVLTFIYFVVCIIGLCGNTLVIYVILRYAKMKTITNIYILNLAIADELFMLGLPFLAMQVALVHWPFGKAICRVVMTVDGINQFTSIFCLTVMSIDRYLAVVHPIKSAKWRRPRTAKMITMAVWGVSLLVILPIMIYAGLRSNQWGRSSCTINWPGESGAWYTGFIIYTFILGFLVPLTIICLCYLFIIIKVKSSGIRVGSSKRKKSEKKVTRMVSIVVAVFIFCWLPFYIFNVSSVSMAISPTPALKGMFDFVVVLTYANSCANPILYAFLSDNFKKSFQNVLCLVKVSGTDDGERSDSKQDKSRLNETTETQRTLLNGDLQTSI
# testMethodNotes: SSTR binding affinity by radioligand binding competition assay ([125I]-Tyr11-Somatostatin, membrane extracts)
# testSettings: read-out: SSTR2 Ki
Square brackets hold non-standard residues; d marks the D form. Peptide text beside a SMILES is read from it. * marks the point of attachment. ξ: configuration not given here. X3 = O=C(O)CN1CCN(CC(=O)O)CCN(CC(=O)NCCCCCCNC(=O)C*)CCN(CC(=O)O)CC1; dTrp(βS-Me) = C[C@@H](c1c[nH]c2ccccc12)[C@@H](N)C(=O)O; ξDihydroorotoyl = O=C1CC(C(=O)*)NC(=O)N1; Phe(4-NH2) = Nc1ccc(C[C@H](N)C(=O)O)cc1; 3Pal = N[C@@H](Cc1cccnc1)C(=O)O; 4Pal = N[C@@H](Cc1ccncc1)C(=O)O; NMehCys = CN[C@@H](CCS)C(=O)O; NMeA = CN[C@@H](C)C(=O)O
testReadout: Ki

Reference set (6 entries):
INSERT INTO measurements (compound, result) VALUES
  ('CC(=O)NCCCC[C@H]1C(=O)N[C@@H](Cc2ccc(O)cc2)C(=O)N[C@H](Cc2c[nH]c3ccccc23)C(=O)N[C@@H](CCCCN)C(=O)N[C@@H](C(C)C)C(=O)N[C@@H](Cc2ccccc2)C(=O)N1C [RB-0002329] (HELM PEPTIDE1{F.[CN([C@@H](CCCCN[*:3])C(=O)[*:2])[*:1]].Y.[dW].K.V}|PEPTIDE2{[ac]}$PEPTIDE1,PEPTIDE2,2:R3-1:R2|PEPTIDE1,PEPTIDE1,1:R1-6:R2$$$V2.0)', '1 to 3.33 nM'),
  ('CC(C)[C@@H]1NC(=O)[C@H](CCCCN)NC(=O)[C@@H](Cc2c[nH]c3ccccc23)NC(=O)[C@H](Cc2ccc(NC(=O)C3CC(=O)NC(=O)N3)cc2)NC(=O)[C@H](C)N(C)C(=O)[C@H](Cc2ccccc2)NC1=O (stereo partly shown) [RB-0002597] (cyclo(F[NMeA][Phe(4-NH2)](ξDihydroorotoyl)[dW]KV))', '1 to 3.33 nM'),
  ('CC(C)[C@@H]1NC(=O)[C@H](CCCCN)NC(=O)[C@@H](Cc2c[nH]c3ccccc23)NC(=O)[C@H](Cc2ccc(O)c(O)c2)NC(=O)[C@H](C)N(C)C(=O)[C@H](Cc2ccccc2)NC1=O [RB-0002595]', '< 1 nM'),
  ('C[C@@H](O)[C@@H]1NC(=O)[C@H](CCCCN)NC(=O)[C@@H](Cc2c[nH]c3ccccc23)NC(=O)[C@H](Cc2ccc(O)cc2)NC(=O)[C@H](C)N(C)C(=O)[C@H](Cc2ccccc2)NC1=O [RB-0002594]', '< 1 nM'),
  ('C[C@@H](O)[C@@H]1NC(=O)[C@H](CCCCN)NC(=O)[C@@H]([C@@H](C)c2c[nH]c3ccccc23)NC(=O)[C@H](Cc2ccncc2)NC(=O)[C@H](CCSCC(=O)NCCCCCCNC(=O)CN2CCN(CC(=O)O)CCN(CC(=O)O)CCN(CC(=O)O)CC2)N(C)C(=O)[C@H](Cc2cccnc2)NC1=O [RB-0003407] (cyclo([3Pal][NMehCys](X3)[4Pal][dTrp(βS-Me)]KT))', '1 to 3.33 nM'),
  ('CC(C)[C@@H]1NC(=O)[C@H](CCCCN)NC(=O)[C@@H](Cc2c[nH]c3ccccc23)NC(=O)[C@H](C(c2ccccc2)c2ccccc2)NC(=O)[C@H](C)N(C)C(=O)[C@H](Cc2ccccc2)NC1=O [RB-0002596] (HELM PEPTIDE1{[O=C([C@@H](N[*:1])C(c1ccccc1)c1ccccc1)[*:2]].[dW].K.V.F.[meA]}$PEPTIDE1,PEPTIDE1,1:R1-6:R2$$$V2.0)', '< 1 nM');

--- query ---
Given C[C@@H](O)[C@@H]1NC(=O)[C@H](CCCCN)NC(=O)[C@@H]([C@@H](C)c2c[nH]c3ccccc23)NC(=O)[C@H](Cc2ccncc2)NC(=O)[C@H](CCSCC(=O)NCCCCCCNC(=O)CN2CCN(CC(=O)O)CCN(CC(=O)O)CCN(CC(=O)O)CC2)N(C)C(=O)[C@H]([C@@H](C)c2ccccc2)NC1=O [RB-0003409] , respond with its Ki. < 1 nM
